Would you kindly list cell viability for each of these compounds?
# Tested on: MV4-11
# measurement.description: cell viability (% survival relative to DMSO control, bortezomib = 0%); higher = less cytotoxic
# recorded.conditions: 1000 nM; 72 h
Numbers only, in %.

The following compounds have reported results that may help.
CCCCCCCNC=O [N-Heptyl-Formamide] = 105
CC(C)(F)C[C@H](N[C@@H](c1ccc(-c2ccc(S(C)(=O)=O)cc2)cc1)C(F)(F)F)C(=O)NC1(C#N)CC1 = 97.9
C=C1C(=O)O[C@H](CCCCCCCC)[C@H]1C(=O)O = 85.9
OCCN(CCO)c1nc(N2CCCCC2)c2nc(N(CCO)CCO)nc(N3CCCCC3)c2n1 = 94.4
CCC(CC#N)OC(=O)N[C@@H](C)c1cccc(NC(=O)Nc2ccc(-c3cnco3)c(OC)c2)c1 (stereo in doubt) = -0.602
N=C(N)c1ccc(N=NNc2ccc(C(=N)N)cc2)cc1 = 92.2

Each compound below has a reported value. Please supply its cell viability.
1. O=c1oc2c(cc1O)oc(=O)c1cc(O)c(O)c(O)c12
2. O=C(Cc1cccc(OC(F)(F)F)c1)Nc1ccc(CCCCc2nnc(NC(=O)Cc3ccccn3)s2)nn1

Result:
[106, 48.1]

----------
# Tested on: KCL-22
# measurement.description: cell viability (% survival relative to DMSO control, bortezomib = 0%); higher = less cytotoxic
# recorded.conditions: 1 nM; 72 h
Provide the recorded cell viability for the entries that follow.
One number for each entry, in %.

// input: 5 compounds below; output: cell viability for each
1. CNC(=C[N+](=O)[O-])NCCSCc1ccc(CN(C)C)o1
2. O=C(C(=O)c1ccc(Br)cc1)c1ccc(Br)cc1
3. CCCCCCCNC=O [N-Heptyl-Formamide]
4. NS(=O)(=O)c1ccc(NC(=O)Cc2ccccc2)cc1 [4-(2-Phenylacetamido)Benzenesulfonamide]
5. C#CCN[C@@H]1CCc2ccccc21

Result:
1: 100; 2: 95.4; 3: 101; 4: 99.8; 5: 80.3

----------
# Tested on: K-562
# measurement.description: cell viability (% survival relative to DMSO control, bortezomib = 0%); higher = less cytotoxic
# recorded.conditions: 1 nM; 72 h
Structures can show the parent of a compound that is named as a salt.
quantity.name: cell viability (%)
Numbers only, in %.

Cn1cc(C[C@@H](N)C(=O)O)c2ccccc21 = 103

Please supply cell viability for each of the following items, keeping them in order.
1. NC(CCC(=O)NC(CSCc1ccc(Br)cc1)C(=O)NCC(=O)OC1CCCC1)C(=O)OC1CCCC1 (configuration not stated)
2. COc1ccc2c(c1)c(CC(=O)O)c(C)n2C(=O)c1ccc(Cl)cc1
3. CCCCC/C=C\C/C=C\C/C=C\C/C=C\CCCC(=O)C(F)(F)F
4. COc1cc(C2Oc3cc(C4Oc5cc(O)cc(O)c5C(=O)C4O)ccc3OC2CO)ccc1O (configuration not stated)
5. CNC(=C[N+](=O)[O-])NCCSCc1ccc(CN(C)C)o1
6. N[C@@H](CCC(=O)N[C@@H](CS)C(=O)NCC(=O)O)C(=O)O
7. O=C(C(=O)c1ccc(Br)cc1)c1ccc(Br)cc1
8. CN(C)C(=O)n1nnnc1Cc1ccc(-c2ccccc2)cc1

Result:
1: 105; 2: 95.2; 3: 101; 4: 95; 5: 108; 6: 94.4; 7: 101; 8: 100

Provide cell viability values for the following items, in order.
1. CC(C)(CCCCCCCCCCC(C)(C)CC(=O)O)CC(=O)O
2. NS(=O)(=O)c1ccc(S(=O)(=O)Nc2cccc3c(Cl)c[nH]c23)cc1
3. CC(C)(Cc1ccccc1)NCC(O)c1ccc(O)c(NS(C)(=O)=O)c1 (configuration not stated) [Zinterol hydrochloride]

Result:
[114, 113, 92.5]

Quick batch: cell viability for everything below.
1. CC1Cc2ccccc2N1NC(=O)c1ccc(Cl)c(S(N)(=O)=O)c1 (configuration not stated) [Indapamide]
2. CC(C)(O)CNc1nc(Nc2ccnc(C(F)(F)F)c2)nc(-c2cccc(C(F)(F)F)n2)n1
3. O=C(Oc1ccc([N+](=O)[O-])cc1)N1CCC(C(O)(c2ccc3c(c2)OCO3)c2ccc3c(c2)OCO3)CC1

Result:
1: 112; 2: 93.1; 3: 92.8
